Where do these numbers come from? They come from PubChem BioAssay (EPA / NIEHS).

- Test system: Nuclear receptor subfamily 1 group I member 2 (Homo sapiens)
- Experiment description: ATG_PXR_TRANS: Attagene TRANS-FACTORIAL HepG2 Assay for human Pregnane X Receptor (PXR) (AID 2283008)
Results filed as inconclusive are left out. Activity calls are given as the source filed them. The calls were made as follows: active = hit-call score of the fitted dose curve at least 0.9, where 1 is the maximum; inconclusive = response in the unintended direction; inactive = score below 0.9.
Readout type: AC50

Some solved cases for reference:
>  <Mol smiles>
O=C1Nc2ccccc2C1(c1ccc(O)cc1)c1ccc(O)cc1

>  <Test system>
Nuclear receptor subfamily 1 group I member 2 (Homo sapiens)

>  <AC50>
inactive

$$$$
>  <Mol smiles>
OC1CCCCCCCCCCC1

>  <Test system>
Nuclear receptor subfamily 1 group I member 2 (Homo sapiens)

>  <AC50>
8.87 µM (active)

$$$$
>  <Mol smiles>
CC(=O)NS(=O)(=O)c1ccc(N)cc1

>  <Test system>
Nuclear receptor subfamily 1 group I member 2 (Homo sapiens)

>  <AC50>
inactive

$$$$
>  <Mol smiles>
O=C(O)CCCCCCCCCC(=O)O

>  <Test system>
Nuclear receptor subfamily 1 group I member 2 (Homo sapiens)

>  <AC50>
inactive

$$$$
>  <Mol smiles>
CC(C)COC(=O)C=Cc1ccccc1

>  <Test system>
Nuclear receptor subfamily 1 group I member 2 (Homo sapiens)

>  <AC50>
29.4 µM (active)

$$$$
>  <Mol smiles>
CC(C)(C)C(=O)CCc1ccc(Cl)cc1

>  <Test system>
Nuclear receptor subfamily 1 group I member 2 (Homo sapiens)

>  <AC50>
inactive

$$$$

Task item: Give the measured AC50 for CCN(Cc1cccc(S(=O)(=O)O)c1)c1ccc(C(=C2C=CC(=[N+](CC)Cc3cccc(S(=O)(=O)[O-])c3)C=C2)c2ccccc2)cc1
Reply: inactive

Task item: Query AC50 for C=C(C)[C@@H]1CCC2=CCC[C@@H](C)[C@]2(C)C1
Reply: 2.72 µM (active)

Task item: Query AC50 for CCOC(=O)[C@H](C)O
Reply: inactive
